Data origin: the supplement of paper PMC9112550

# System: Escherichia coli TOP10
# Experiment notes: shrunken log2 fold change of peptide-encoding DNA abundance (4.5 h post-induction vs induction); higher = less antimicrobial activity (less host growth inhibition)
# Measurement context: time post-induction: 4.5 h; library: site-saturation at positions 5, 18, 19, 20
Endpoint name: shrunken log2 fold change
Write no unit; give the number alone.

RRIRMRPPRLPRPRPRPANRPRP; 0.21

Attention now shifts to the item below.
Query block: Endpoint output: shrunken log2 fold change of RRIRGRPPRLPRPRPRPERDPRP . Value?
Result block: 0.955

====

# System: Escherichia coli TOP10;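 further: peptides expressed intracellularly from a pBAD plasmid library in pooled LB shake-flask culture, induced with 0.3% L-arabinose, DNA abundance read by NGS, three biological replicates, DESeq2 with apeglm shrinkage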
# Experiment notes: shrunken log2 fold change of peptide-encoding DNA abundance (4.5 h post-induction vs induction); higher = less antimicrobial activity (less host growth inhibition)
# Measurement context: time post-induction: 4.5 h; library: site-saturation at positions 5, 18, 19, 20
# Lookup of reported shrunken log2 fold change keyed by entry
Please reply with the number alone, leaving off any unit.

For orientation, consider the following solved cases.
RRIRPRPPRLPRPRPRPQCLPRP; 0.0368
RRIRPRPPRLPRPRPRPWKNPRP; -0.0413
RRIRVRPPRLPRPRPRPHKSPRP; 0.0325
RRIRVRPPRLPRPRPRPYSCPRP; -0.00112
RRIRRRPPRLPRPRPRPEIVPRP; 0.246

Query block: Need shrunken log2 fold change of RRIRWRPPRLPRPRPRPYARPRP , thanks.
Result block: 0.101

Query block: For the sequence shown here, RRIRFRPPRLPRPRPRPECGPRP , give the reported shrunken log2 fold change.
Result block: 0.175

Query block: Consider the sequence shown here: RRIRIRPPRLPRPRPRPYTNPRP What is its recorded shrunken log2 fold change?
Result block: -0.957

Query block: State the recorded shrunken log2 fold change for this entry: RRIRYRPPRLPRPRPRPCLPPRP
Result block: -0.409

Query block: Look at this sequence and give its reported shrunken log2 fold change. RRIRHRPPRLPRPRPRPQIFPRP
Result block: -0.135

Query block: I'd like to know its shrunken log2 fold change. The sequence in question is RRIRRRPPRLPRPRPRPFKKPRP
Result block: -0.0451

Query block: Form field: reported shrunken log2 fold change of RRIRNRPPRLPRPRPRPAHDPRP
Result block: 0.055

Query block: What measured shrunken log2 fold change goes with RRIRGRPPRLPRPRPRPDNPPRP ?
Result block: 0.0274

Query block: If you can, please state the reported shrunken log2 fold change value of RRIRQRPPRLPRPRPRPEGFPRP .
Result block: -0.0494

Query block: # lookup: shrunken log2 fold change of RRIRKRPPRLPRPRPRPPGHPRP
Result block: 0.377

Query block: Can you share its shrunken log2 fold change? I mean this sequence: RRIRVRPPRLPRPRPRPYEEPRP
Result block: -0.128

Query block: I'd like to know its shrunken log2 fold change. The sequence in question is RRIRTRPPRLPRPRPRPQSKPRP
Result block: -0.209

Query block: // lookup shrunken log2 fold change for RRIRDRPPRLPRPRPRPLQIPRP
Result block: -0.21

Query block: Please report the recorded shrunken log2 fold change for RRIRVRPPRLPRPRPRPGSMPRP .
Result block: -0.00131

Query block: Consider the sequence RRIRTRPPRLPRPRPRPVQQPRP and give its measured shrunken log2 fold change.
Result block: 0.0144

Query block: Please look up its shrunken log2 fold change: RRIRERPPRLPRPRPRPQFHPRP
Result block: -0.629

Query block: Fill in the blank: the reported shrunken log2 fold change of RRIRGRPPRLPRPRPRPTMIPRP is ____.
Result block: 0.0786

Query block: # shrunken log2 fold change lookup, item RRIRARPPRLPRPRPRPVRLPRP
Result block: 0.371

Query block: State the recorded shrunken log2 fold change for this entry: RRIRLRPPRLPRPRPRPETEPRP
Result block: 0.0833

Query block: Form field: reported shrunken log2 fold change of RRIRSRPPRLPRPRPRPVIDPRP
Result block: -0.26

Query block: What measured shrunken log2 fold change goes with RRIRIRPPRLPRPRPRPNKCPRP ?
Result block: -0.438

Query block: Which shrunken log2 fold change is listed for RRIRQRPPRLPRPRPRPVLLPRP ?
Result block: -0.154

Query block: For the sequence RRIRGRPPRLPRPRPRPDISPRP , what shrunken log2 fold change is on record?
Result block: -0.0115
